# assayed.target: P. vivax dihydrofolate reductase (PvDHFR) (Plasmodium vivax, UniProt O02604)
# Sequence (O02604 1-240): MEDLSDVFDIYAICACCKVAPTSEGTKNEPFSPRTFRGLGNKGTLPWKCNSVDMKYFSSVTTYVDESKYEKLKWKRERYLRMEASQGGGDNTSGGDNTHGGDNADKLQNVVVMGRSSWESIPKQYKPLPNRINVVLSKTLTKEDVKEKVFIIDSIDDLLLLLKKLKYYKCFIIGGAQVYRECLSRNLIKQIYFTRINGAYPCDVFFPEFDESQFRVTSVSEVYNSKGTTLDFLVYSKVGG
pIC50: −log10 of the molar value.
property: pIC50

{"columns": ["compound", "data.value"],
 "data": [
  ["Oc1cc(Cl)ccc1Oc1ccc(Cl)cc1Cl [triclosan]", 6.11]
]}

====

# assayed.target: human dihydrofolate reductase (HsDHFR) (Homo sapiens, UniProt P00374)
# Sequence (P00374 whole entry): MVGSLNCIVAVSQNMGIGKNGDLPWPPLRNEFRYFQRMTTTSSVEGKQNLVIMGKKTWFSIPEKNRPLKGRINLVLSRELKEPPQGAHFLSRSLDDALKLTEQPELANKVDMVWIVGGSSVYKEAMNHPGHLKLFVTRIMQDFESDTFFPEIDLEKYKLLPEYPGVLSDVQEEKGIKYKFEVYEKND
property: IC50 (µM)

{"columns": ["molecular.string", "property", "unit.descriptor", "data.value"],
 "data": [
  ["Oc1cc(Cl)ccc1Oc1ccc(Cl)cc1Cl", "IC50", "µM", 17.2]
]}

Ref: paper PMC5773535
